Target: hFASN enzyme (full length) (Homo sapiens, UniProt P49327)
Construct: 10 μL hFASN enzyme (full length, 300 ng, purified in house); made in house
Sequence (P49327 whole entry): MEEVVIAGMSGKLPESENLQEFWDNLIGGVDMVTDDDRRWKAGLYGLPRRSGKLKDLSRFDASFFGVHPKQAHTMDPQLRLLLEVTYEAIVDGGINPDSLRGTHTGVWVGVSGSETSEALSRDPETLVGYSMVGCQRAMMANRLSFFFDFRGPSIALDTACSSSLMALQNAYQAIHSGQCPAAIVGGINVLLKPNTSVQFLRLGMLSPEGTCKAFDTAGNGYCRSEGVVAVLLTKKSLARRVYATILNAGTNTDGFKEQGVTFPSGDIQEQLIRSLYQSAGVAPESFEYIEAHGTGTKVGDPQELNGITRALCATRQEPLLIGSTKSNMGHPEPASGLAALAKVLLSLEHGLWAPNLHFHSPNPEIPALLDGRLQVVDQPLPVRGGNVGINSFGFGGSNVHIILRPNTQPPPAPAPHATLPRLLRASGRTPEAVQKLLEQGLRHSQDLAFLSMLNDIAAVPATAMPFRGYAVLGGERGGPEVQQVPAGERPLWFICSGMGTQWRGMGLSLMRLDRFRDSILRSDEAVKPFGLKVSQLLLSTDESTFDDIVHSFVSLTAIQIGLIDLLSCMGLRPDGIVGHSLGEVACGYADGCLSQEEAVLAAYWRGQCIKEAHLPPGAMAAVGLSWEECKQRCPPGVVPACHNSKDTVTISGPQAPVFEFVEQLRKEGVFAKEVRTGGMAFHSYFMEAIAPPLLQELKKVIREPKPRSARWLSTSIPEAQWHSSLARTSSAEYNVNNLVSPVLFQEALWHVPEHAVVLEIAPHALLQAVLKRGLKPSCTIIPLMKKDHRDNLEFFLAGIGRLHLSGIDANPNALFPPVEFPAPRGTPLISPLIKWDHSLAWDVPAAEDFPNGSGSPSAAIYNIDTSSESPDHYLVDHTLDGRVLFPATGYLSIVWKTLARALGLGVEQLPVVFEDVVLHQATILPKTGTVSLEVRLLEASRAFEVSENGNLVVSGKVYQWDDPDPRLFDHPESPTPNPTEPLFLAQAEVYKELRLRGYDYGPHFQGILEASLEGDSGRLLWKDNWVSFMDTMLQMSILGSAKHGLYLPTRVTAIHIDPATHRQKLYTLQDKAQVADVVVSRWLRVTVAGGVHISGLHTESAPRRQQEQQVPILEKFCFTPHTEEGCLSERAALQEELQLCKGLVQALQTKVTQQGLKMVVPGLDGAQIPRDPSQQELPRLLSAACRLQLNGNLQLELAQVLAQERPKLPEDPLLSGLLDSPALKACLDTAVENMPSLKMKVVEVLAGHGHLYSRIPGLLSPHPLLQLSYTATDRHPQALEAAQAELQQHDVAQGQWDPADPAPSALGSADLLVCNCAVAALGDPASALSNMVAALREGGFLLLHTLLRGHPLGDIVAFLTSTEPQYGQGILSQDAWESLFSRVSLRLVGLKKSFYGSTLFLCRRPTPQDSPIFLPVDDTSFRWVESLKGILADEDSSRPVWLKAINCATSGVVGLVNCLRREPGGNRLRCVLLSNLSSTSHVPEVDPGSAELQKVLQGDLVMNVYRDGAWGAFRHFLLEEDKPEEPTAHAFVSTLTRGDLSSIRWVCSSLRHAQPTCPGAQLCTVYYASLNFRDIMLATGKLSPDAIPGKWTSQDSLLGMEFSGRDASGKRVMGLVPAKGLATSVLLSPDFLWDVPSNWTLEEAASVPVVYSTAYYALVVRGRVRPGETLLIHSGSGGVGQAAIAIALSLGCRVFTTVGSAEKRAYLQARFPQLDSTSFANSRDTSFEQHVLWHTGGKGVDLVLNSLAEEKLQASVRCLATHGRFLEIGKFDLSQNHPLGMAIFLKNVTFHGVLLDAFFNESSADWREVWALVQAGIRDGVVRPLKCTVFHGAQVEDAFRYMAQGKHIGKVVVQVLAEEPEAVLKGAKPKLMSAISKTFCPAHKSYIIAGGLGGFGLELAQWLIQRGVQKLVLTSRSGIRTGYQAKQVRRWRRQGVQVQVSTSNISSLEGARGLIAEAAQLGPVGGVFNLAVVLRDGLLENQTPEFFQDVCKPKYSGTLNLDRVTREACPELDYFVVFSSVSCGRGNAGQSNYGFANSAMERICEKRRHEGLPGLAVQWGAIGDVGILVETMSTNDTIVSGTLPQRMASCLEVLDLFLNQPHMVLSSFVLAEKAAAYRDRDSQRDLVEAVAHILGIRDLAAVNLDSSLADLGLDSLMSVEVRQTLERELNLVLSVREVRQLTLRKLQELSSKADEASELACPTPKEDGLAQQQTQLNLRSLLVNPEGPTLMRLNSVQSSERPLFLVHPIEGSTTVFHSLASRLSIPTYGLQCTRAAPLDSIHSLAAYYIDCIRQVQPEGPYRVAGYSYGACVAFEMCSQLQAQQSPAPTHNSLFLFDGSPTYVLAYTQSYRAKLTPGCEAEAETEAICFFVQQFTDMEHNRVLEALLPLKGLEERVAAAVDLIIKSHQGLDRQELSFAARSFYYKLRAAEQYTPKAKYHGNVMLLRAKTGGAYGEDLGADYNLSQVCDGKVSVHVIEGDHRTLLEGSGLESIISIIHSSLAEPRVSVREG
Experiment: Fatty Acid Synthase (FASN) inhibition scintillation proximity assay
Assay type: biochemical
Conditions: read-out: Human FASN % inhibition @ 10 μM, 10 μM test compound
# maps each entry to its inhibition at 10 µM
# number only, unit % dropped from output

// known answers, use as guide
O=C(C1CC1)N1CC[C@@H](CN2C(=O)C3(CC3)N=C2c2ccc(-c3ccc4cncnc4c3)cc2)C1 | 101
Cc1cc(-c2ccc3c(cnn3C)c2)ccc1C1=NC2(CC2)C(=O)N1CC1CN(C(=O)C(C)(C)CO)C1 | 100
Cc1cc(-c2ccc3c(cnn3C)c2)ccc1C1=NC2(CC2)C(=O)N1CC1CN(C(=O)C2(C)CC2)C1 | 101
O=C(C1CC1)N1CC[C@@H](CN2C(=O)C3(CC3)N=C2c2ccc(-c3ccc4[nH]cc(CCO)c4c3)cc2)C1 | 103
COCc1c2cc(-c3ccc(C4=NC5(CC5)C(=O)N4CC4CN(C(=O)C5CC5)C4)c(C)c3)ccc2nn1C | 52
O=C(C1CC1)N1CC[C@@H](CN2C(=O)C3(CCNCC3)N=C2c2ccc(-c3ccc4occc4c3)cc2)C1 | 99.1
COC(=O)N1CC2(C1)N=C(c1ccc(-c3ccc4c(cnn4C)c3)cc1)N(C[C@@H]1CCN(C(=O)[C@H]3CCCO3)C1)C2=O | 92
O=C(N1CC[C@@H](CN2C(=O)C3(CC3)N=C2c2ccc(-c3ccc(Cl)cc3F)cc2)C1)C1(O)CC1 | 101

// next item, inhibition at 10 µM requested
Indicate the recorded inhibition at 10 µM value for this compound: Cc1cc(-c2ccc3c(cnn3C)c2)ccc1C1=NC2(CC2)C(=O)N1CC1CN(C(=O)C2CCCO2)C1 (stereo not drawn) [compound 205]
94

----------
Molecular target: hFASN enzyme (full length) (Homo sapiens)
Construct: 10 μL hFASN enzyme (full length, 300 ng, purified in house); made in house
Assay: Fatty Acid Synthase (FASN) inhibition scintillation proximity assay
Format: biochemical
Conditions: read-out: Human FASN pIC50 (converted)
Quantity Kind: IC50

// known answers, use as guide
Cn1ncc2cc(-c3ccc(C4=NC5(CCOC5)C(=O)N4CC4CN(C(=O)N5CCCC5)C4)cc3)ccc21 (centres unmarked) | > 10 µM
COC(=O)N1CC2(C1)N=C(c1ccc(-c3ccc4occc4c3)cc1)N(C[C@@H]1CCN(S(C)(=O)=O)C1)C2=O | > 10 µM

State IC50 on hFASN enzyme (full length) (Homo sapiens). Entry: Cn1cc(-c2ccc(-c3ccc(C4=NC5(CCOCC5)C(=O)N4C[C@@H]4CCN(C(=O)c5nccs5)C4)cc3)cc2)cn1
> 10 µM

State IC50 on hFASN enzyme (full length) (Homo sapiens). Entry: O=C(C1CC1)N1CC(CN2C(=O)C3(CC3)N=C2c2ccc(-c3ccc(N4CCCC4)nc3)cc2)C1
1.32 µM

State IC50 on hFASN enzyme (full length) (Homo sapiens). Entry: O=C(C1CC1)N1CCC[C@H](CN2C(=O)C3(CC3)N=C2c2ccc(-c3ccc4occc4c3)cc2)C1
> 10 µM

----------
# maps each entry to its inhibition at 10 µM
Biological target: hFASN enzyme (full length) (Homo sapiens, UniProt P49327)
Construct: 10 μL hFASN enzyme (full length, 300 ng, purified in house); made in house
Experiment: Fatty Acid Synthase (FASN) inhibition scintillation proximity assay
Type: biochemical
Conditions: read-out: Human FASN % inhibition @ 10 μM, 10 μM test compound
# number only, unit % dropped from output

Indicate the recorded inhibition at 10 µM value for this compound: Cc1cc(-c2cccc(NS(=O)(=O)C3CC3)c2)ccc1C1=NC2(CC2)C(=O)N1CC1CN(C(=O)C2CC2)C1
92
